Origin of values: PubChem BioAssay

test: galactose survival enhancers in mitochondrial complex I cybrids – cell-based, galactose medium, ATP luminescence, primary screen (AID 1645843); conditions: complex I mutant cybrid cells, 72 h, stronger effect = higher value;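 note: positive z means more ATP and so rescue of galactose-driven cybrid death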
quantity_name: z-score
Give the value as a plain number.

Would you kindly share the measured z-score for "COc1cc(CNC(=O)CCCCCCC(C)C)ccc1O" ? -0.085

What does the record list as z-score for C[C@]12CC[C@@H]3c4ccc(O)cc4C[C@@H](CCCCCCCCCS(=O)CCCC(F)(F)C(F)(F)F)C3[C@@H]1CC[C@@H]2O (some centres not stated) ? 0.9

May I ask what z-score has been recorded for CCCCCCCCCCCC(CC1OC(=O)C1CCCCCC)OC(=O)C(CC(C)C)NC=O (configuration not stated) ? -1.84

Recorded z-score for "CN1c2cc3c(cc2N=C(c2ccc(C(=O)O)cc2)c2ccccc21)C(C)(C)CCC3(C)C" , please? -0.495

Given O=C(NC(NC(=S)Nc1ccc(F)c([N+](=O)[O-])c1)C(Cl)(Cl)Cl)C(c1ccccc1)c1ccccc1 (configuration not stated) , state its recorded z-score. -0.7

Return reported z-score; argument: "O=c1c2ccccc2nc2n1CCc1c-2[nH]c2ccccc12" 1.2

Could you share which z-score value was measured for CC(O)(C(=O)Nc1ccc(S(=O)(=O)c2ccccc2)cc1)C(F)(F)F (configuration not stated) ? -0.32

---

assay: growth inhibition, MDA-MB-436, cell-based, BGB or cisplatin combos, synergistic combos for chromothripsis tumors (AID 1671458); settings: MDA-MB-436 breast carcinoma growth inhibition, drug combinations; measured here: cisplatin combination; at 5 µM; stronger effect = higher value;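 note: cells exposed for 96 hours; 0% = vehicle DMSO and 100% = killing by high DMSO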
quantity_name: inhibition
The reply should consist of the numeric value with the unit placed after it.

Fill in the blank: the reported inhibition of "CN(C)c1ccc(C(=O)NCCCCCCC(=O)NO)cc1" is ____. 47.8%

Any idea what inhibition was measured for NC1CCC(N[C@@H]2C[C@H]2c2ccccc2)CC1 (some centres undefined) ? -12.9%

Value lookup for inhibition; key = "NC(=O)c1nc(F)c[nH]c1=O" -5.06%

Entry "O=c1cc(N2CCOCC2)oc2c1ccc1ccccc12" has what inhibition? -6.05%

---

test: CRL1545 cell growth, single agent and combined, cisplatin and BGB IC20 combos (AID 1671464); conditions: CRL1545 osteosarcoma cells, measured here: with cisplatin IC20 combination, at 0.5 µM, stronger effect = higher value;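 note: cells exposed to compound for 96 hours before readout; 0% = vehicle DMSO and 100% = high DMSO killing control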
quantity_name: inhibition (%)
# unit: % | format: bare number

I am curious: what inhibition value has been reported for NC1CCC(N[C@@H]2C[C@H]2c2ccccc2)CC1 (some centres not stated) ? -37.3

Using the record for "CN(C)CCN1C(=O)c2cccc3cc(N)cc(c23)C1=O" , report its inhibition. -40.7

Requested read-out: inhibition. Entry: "c1cc(Nc2cc(C3CC3)[nH]n2)nc(Nc2ccc3nc[nH]c3c2)n1" -7.92

Fill in: inhibition of "O=C(O)CO.[NH2-].[NH2-].[Pt+2]" is ___ 0.578

Quick check: inhibition of "CC(=O)[C@]1(N)Cc2c(O)c3c(c(O)c2[C@@H](O[C@H]2C[C@H](O)[C@H](O)CO2)C1)C(=O)c1ccccc1C3=O" ? 29.7

Please report the recorded inhibition for "COc1cc(C=O)c([N+](=O)[O-])cc1OC" . 2

What value of inhibition has been reported for the following molecule? "CC(C)OC(=O)[C@H](C)N[P@](=O)(OC[C@H]1O[C@@H](n2ccc(=O)[nH]c2=O)[C@](C)(F)[C@@H]1O)Oc1ccccc1" 31.1

---

assay: drug combination growth inhibition, ovarian cancer – cell-based, oncology-focused library, rucaparib conditional, profiling panel (AID 1508598); details: patient-derived ovarian cancer cells, CellTiter-Glo viability, 144 h; at 0.0781 µM; OCI-C5x cells; without rucaparib
Calls of active or inactive are those of the source.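 Rule for the calls: active = normalized viability below 100% at a tested concentration; inactive = the rest.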
// classify into class 1 (active), class 0 (inactive)

Status in this test for "CC1(COc2ccc3c(c2)ncn3-c2ccc3cccc(N4CCC(N)CC4)c3n2)COC1" ? class 0

Test call for this molecule, please: "CN(C)Cc1c(C(=O)NCCOc2ccc(C(=O)NO)cc2)oc2ccccc12" class 0

Which outcome was entered for the molecule "CN(C)N=Nc1nc[nH]c1C(N)=O" in this test? class 0

Kindly provide the recorded test outcome for the following molecule: "Cc1ccc(S(=O)(=O)Nc2nc3ccccc3nc2Nc2ccc3nsnc3c2)cc1" class 0

Recorded test outcome, item "COc1nc(C)cnc1NS(=O)(=O)c1cccnc1-c1ccc(-c2nnco2)cc1" class 0

Check the results log: what was the call for "COCCn1c2c([n+](Cc3cnccn3)c1C)C(=O)c1ccccc1C2=O" ? class 1

Could you check what this test reported for "N#Cc1c(NC(=O)c2cccc3ccccc23)sc2c1CCCC2" ? class 0

Hi team, can someone confirm the assay call for "CNC(=O)c1ccc(C)c(-n2c(C)cc(OCc3ccc(F)cc3F)c(Br)c2=O)c1" ? class 0

Could you check what this test reported for "O=S(=O)(O)CCSSCCS(=O)(=O)O" ? class 0

---

experiment: viability loss in pontine glioma line – cell-based, JHH-DIPG-1, MIPE4.0, CellTiter-Glo, qHTS, dose response (AID 1347062); conditions: JHH-DIPG-1 viability, CellTiter-Glo ATP luminescence
Results filed as inconclusive are left out. Activity calls are given as the source filed them. No cut-off is given here; in the data, nearly all actives have AC50 up to about 27 µM.
quantity_name: outcome

O=C(Nc1cc(Cl)cc2c1[nH]c1cnccc12)c1cccnc1    inactive
O=c1c2ccccc2nc2n1CCc1c-2[nH]c2ccccc12    inactive
CCOc1cc(/C=C2/C(=O)N(c3ccccc3)N=C2C)cc(Cl)c1OCC(=O)OC    inactive

---

Exercise: for every item that follows, state its recorded cell count.
assay: viability loss with induced miR-34 in A549 – imaging, A549 dox-inducible miR-34, nuclei and caspase counts, primary screen (AID 1347080); settings: A549 miR-34 inducible, Hoechst nuclei count, 48 h; measured here: total cells without miR-34 induction
Give the value as a plain number.

Need cell count of "COc1cc2nccc(Oc3ccc(NC(=O)NC4CC4)c(Cl)c3)c2cc1C(N)=O" , thanks. 6040

Tell me the measured cell count of CCOC(=O)C1CSC(Cc2ccc(OCc3ccc([N+](=O)[O-])cc3)cc2)N1 (stereo not drawn) , please. 8940

Requested field: cell count. Item: "C[Se]CC[C@H](N)C(=O)O" 9060

What measured cell count goes with CCCNC(=O)[C@H]1O[C@@H]1C(=O)N[C@H](C(=O)N1CCC[C@H]1C(=O)OC)C(C)CC (stereo partly drawn) ? 4230

What does the record list as cell count for "CCCCC(C)(C)[C@H](O)/C=C/[C@H]1CCC(=O)[C@@H]1C/C=C\CCCC(=O)O" ? 6450

Entry under review: "O=C1OC[C@@H](Cc2cccc(O)c2)[C@@H]1Cc1cccc(O)c1" . Reported cell count? 6060

What does the record list as cell count for "CCCCC/C=C\C/C=C\CCCCCCCC(=O)OC(CO)CO" ? 5600

Reported cell count, compound "O=C1C[C@@H]2[C@@H](/C=C/[C@@H](O)COc3cccc(C(F)(F)F)c3)[C@H](O)C[C@@H]2O1" : ____ 5880

Fill in the blank: the reported cell count of "CCCCC[C@H](O)/C=C/[C@@H]1[C@@H](C/C=C\CCCC(=O)N(C)C)[C@@H](O)C[C@H]1O" is ____. 5480

Give its cell count value. Item: "CCCCCCCCCCCCCCCNC(=O)C1CCCCC1" 6070

# get_value(readout='cell count', item= "CCCc1cc(C)[nH]c(=O)c1CNC(=O)c1cc(-c2ccc(N3CCN(C(C)C)CC3)nc2)cc2c1cnn2C(C)C" ) 7030

// lookup cell count for "N#C/C(=C\c1ccc(O)c(O)c1)C(=O)OCCc1cccs1" 9690

Data request, read-out cell count, for CN(C)CCC1(c2ccc(Cl)cc2)Cc2ccccc2C(=O)O1 (stereo not drawn) 7900

Suppose we examine the compound "Cc1cccc(-c2[nH]c(C(C)(C)C)nc2-c2ccc3c(c2)OCO3)n1" ; what cell count value has been reported? 3590

What value of cell count has been recorded for this entry: "CCCCCCCCCCCCCCCC(=O)N[C@H]1CCOC1=O" 5590

I would be grateful if you could share the reported cell count for "CCS(=O)(=O)c1cccc(-c2cc(C(=O)NC3CCN(C)CC3)c(C)c3[nH]c4ncc(C)cc4c23)c1" . 1090

Query: cell count; subject: CNc1cc(OC)c(C(=O)N[C@@H]2CCN(Cc3ccccc3)[C@@H]2C)cc1Cl (racemic) 8810

Sample "N[C@@H]1CCN(O)C1=O" — what was its cell count? 9260

Field request: cell count | item: "O=C(O)CCC/C=C\C[C@H]1C(=O)C=C[C@@H]1/C=C/[C@@H](O)CCc1ccccc1" 6220

Would you mind telling me what cell count value was observed for "CN1c2cc3c(cc2N=C(c2ccc(C(=O)O)cc2)c2ccccc21)C(C)(C)CCC3(C)C" ? 8280

Data request, read-out cell count, for CCCCC(C)(O)C/C=C/[C@H]1[C@H](O)CC(=O)[C@H]1CCCCCCC(=O)OC (stereo partly drawn) 5290

Tell me the measured cell count of "CC/C=C\C/C=C\C/C=C\CCCCCCCC(=O)N[C@@H](Cc1ccc(O)cc1)C(=O)O" , please. 5940

Which measured cell count value corresponds to "Cc1nn(-c2ccccc2)c(C)c1/C=N/N1CCN(Cc2ccccc2)CC1" ? 8510

Endpoint output: cell count of "C1CC[C@H]2[N]=[Pt]=[N][C@@H]2C1.O=C(O)C(=O)O" . Value? 4350

Please give the measured cell count for this compound: "CCCCCC#CCC#CCC#CCCCCCCC(=O)O" 5910

What does the data say about its cell count? Entry: "O=C(CN=C(c1ccccc1)c1ccccc1)OCc1ccccc1" 6050

# input compound: "CCN(c1cc(-c2ccc(CN3CCOCC3)cc2)cc(C(=O)NCc2c(C)cc(C)[nH]c2=O)c1C)C1CCOCC1" ; wanted: its cell count 8360

For "COc1cc2c(Oc3ccc4[nH]c(C)cc4c3F)ncnc2cc1OCCCN1CCCC1" , what is its reported cell count? 3760
